- EXPERIMENT: PAMPA
- Format: in vitro ADME
In this scheme, each record receives a class according to its PAMPA; the ranges are low end (below 0.3), middle (0.3 to below 0.7), high end (0.7 or more)

{"COMPOUND": "CC#Cc1cc(C2(c3ccc(OC(F)F)c(C)c3)N=C(N)N(C)C2=O)ccn1 (stereo not shown)", "CLASS": "middle"}
{"COMPOUND": "Cc1cc(C2(c3cncnc3)N=C(N)N(C)C2=O)ccc1OC(F)F (stereo not shown)", "CLASS": "low end"}
{"COMPOUND": "Cc1cc(C2(c3cccc(F)c3)N=C(N)N(Cc3ccccc3)C2=O)ccc1OC(F)F (stereo not shown)", "CLASS": "high end"}
{"COMPOUND": "COCc1cc(C2(c3ccc(OC(F)F)c(C)c3)N=C(N)N(C)C2=O)ccn1 (stereo not shown)", "CLASS": "low end"}
{"COMPOUND": "Cc1cc(C2(C3CCCCC3)N=C(N)N(C)C2=O)ccc1OC(F)F (stereo not shown)", "CLASS": "high end"}
{"COMPOUND": "Cc1ncc(-c2cccc(C3(C4CC4)N=C(N)N(C)C3=O)c2)cn1 (stereo not shown)", "CLASS": "middle"}
{"COMPOUND": "Cc1cc(C2(c3cncc(F)c3)N=C(N)N(C)C2=O)ccc1OC(F)F (stereo not shown)", "CLASS": "middle"}
{"COMPOUND": "Cc1cccc(C2(c3cccc(-c4cccnc4)c3)N=C(N)N(C)C2=O)c1 (stereo not shown)", "CLASS": "middle"}
{"COMPOUND": "Cc1cc(C2(c3cc(-c4cncnc4)ccc3F)N=C(N)N(C)C2=O)ccc1OC(F)F (stereo not shown)", "CLASS": "low end"}
{"COMPOUND": "CC#Cc1cncc(-c2cc(C3(c4ccnc(C(F)F)c4)N=C(N)N(C)C3=O)ccc2F)c1 (stereo not shown)", "CLASS": "middle"}
{"COMPOUND": "Cc1cc(C2(c3cccc(F)c3)N=C(N)N(C)C2=S)ccc1OC(F)F (stereo not shown)", "CLASS": "high end"}
{"COMPOUND": "Cc1cc(C2(C3CCCC(c4ncco4)C3)N=C(N)N(C)C2=O)ccc1OC(F)F (stereo not shown)", "CLASS": "high end"}

---

- EXPERIMENT: PAMPA
- Type: in vitro ADME
Listed molecules paired with reported PAMPA
REPORTED_ENDPOINT: PAMPA

{"MOLECULE": "CN1C(=O)C(c2cccc(-c3cncnc3)c2)(c2ccc3occc3c2)N=C1N (stereo not drawn)", "REPORTED_ENDPOINT": "PAMPA", "MEASURED_NUMBER": 0.52}
{"MOLECULE": "Cc1cc(C2(c3cccc(NC(=O)N(C)C)c3)N=C(N)N(C)C2=O)ccc1OC(F)F (stereo not drawn)", "REPORTED_ENDPOINT": "PAMPA", "MEASURED_NUMBER": 0.38}
{"MOLECULE": "Cc1cc(C2(c3ccc(OC(F)F)c(C)c3)N=C(N)N(C)C2=O)ccn1 (stereo not drawn)", "REPORTED_ENDPOINT": "PAMPA", "MEASURED_NUMBER": 0.46}
{"MOLECULE": "Cc1cc(C2(c3cccc(-c4ccncn4)c3)N=C(N)N(C)C2=O)ccc1OC(F)F (stereo not drawn)", "REPORTED_ENDPOINT": "PAMPA", "MEASURED_NUMBER": 0.58}
{"MOLECULE": "Cc1cc(C2(c3cccc(-c4cnco4)c3)N=C(N)N(C)C2=O)ccc1OC(F)F (stereo not drawn)", "REPORTED_ENDPOINT": "PAMPA", "MEASURED_NUMBER": 0.79}
{"MOLECULE": "COCc1cccc(C2(c3ccc(OC(F)F)c(C)c3)N=C(N)N(C)C2=O)c1 (stereo not drawn)", "REPORTED_ENDPOINT": "PAMPA", "MEASURED_NUMBER": 0.91}
{"MOLECULE": "CC#Cc1cncc(-c2cccc(C3(C(C)C)N=C(N)N(C)C3=O)c2)n1 (stereo not drawn)", "REPORTED_ENDPOINT": "PAMPA", "MEASURED_NUMBER": 1.71}
{"MOLECULE": "CN1C(=O)C(c2cccc(-c3cncnc3)c2)(c2ccc3c(c2)OC(F)(F)O3)N=C1N (stereo not drawn)", "REPORTED_ENDPOINT": "PAMPA", "MEASURED_NUMBER": 0.59}
{"MOLECULE": "CN1C(=O)C(C)(c2cccc(-c3cncnc3)c2)N=C1N (stereo not drawn)", "REPORTED_ENDPOINT": "PAMPA", "MEASURED_NUMBER": 0.27}

---

- EXPERIMENT: PAMPA
- Format: in vitro ADME

{"COMPOUND": "Cc1cc(C2(c3cccc(-c4ccccc4)c3)N=C(N)N(C)C2=O)ccc1OC(F)F (stereo not drawn) [FAH-73]", "PAMPA": 5.11}
{"COMPOUND": "Cc1cc(C2(c3cccc(-c4ccnnc4)c3)N=C(N)N(C)C2=O)ccc1OC(F)F (stereo not drawn) [FAH-72]", "PAMPA": 0.37}
{"COMPOUND": "Cc1cc(C2(c3cccc(-c4cnc(N)nc4)c3)N=C(N)N(C)C2=O)ccc1OC(F)F (stereo not drawn) [FAH-110]", "PAMPA": 0.46}
{"COMPOUND": "CCCC1CC(C2(c3ccc(OC(F)F)c(C)c3)N=C(N)N(C)C2=O)CCN1C (stereo not drawn) [FAH-68]", "PAMPA": 0.20}
{"COMPOUND": "CN1C(=O)C(c2cccc(-c3cncnc3)c2)(c2ccc3c(c2)CCO3)N=C1N (stereo not drawn) [FAH-117]", "PAMPA": 0.32}
{"COMPOUND": "Cc1cc(C2(c3cccc(-c4cncc(F)c4)c3)N=C(N)N(C)C2=O)ccc1OC(F)F (stereo not drawn) [FAH-66]", "PAMPA": 1.15}
{"COMPOUND": "Cc1cc(C2(c3cccc(C4CNC4)c3)N=C(N)N(C)C2=O)ccc1OC(F)F (stereo not drawn) [FAH-64]", "PAMPA": 0.35}
{"COMPOUND": "CCCc1cncc(-c2cccc(C3(C(C)C)N=C(N)N(C)C3=O)c2)n1 (stereo not drawn) [FAH-106]", "PAMPA": 2.36}
{"COMPOUND": "COc1cc(C2(c3ccc(OC(F)F)c(C)c3)N=C(N)N(C)C2=O)ccn1 (stereo not drawn) [FAH-48]", "PAMPA": 0.68}
{"COMPOUND": "Cc1cc(C2(C3CCN(C)CC3)N=C(N)N(C)C2=O)ccc1OC(F)F (stereo not drawn) [FAH-67]", "PAMPA": 0.20}
{"COMPOUND": "Cc1cc(C2(c3ccnc(F)c3)N=C(N)N(C)C2=O)ccc1OC(F)F (stereo not drawn) [FAH-46]", "PAMPA": 0.65}
{"COMPOUND": "CNCc1cccc(C2(c3ccc(OC(F)F)c(C)c3)N=C(N)N(C)C2=O)c1 (stereo not drawn) [FAH-62]", "PAMPA": 0.35}
{"COMPOUND": "Cc1cc(C2(c3cocn3)N=C(N)N(C)C2=O)ccc1OC(F)F (stereo not drawn) [FAH-38]", "PAMPA": 3.46}
{"COMPOUND": "CN1C(=O)C(c2cccc(-c3cncnc3)c2)(c2ccc3c(c2)OCCO3)N=C1N (stereo not drawn) [FAH-135]", "PAMPA": 0.26}
{"COMPOUND": "CN1C(=O)C(c2ccc(OC(F)F)cc2)(c2cccc(-c3cncnc3)c2)N=C1N (stereo not drawn) [FAH-74]", "PAMPA": 0.36}
{"COMPOUND": "CNCCc1cccc(C2(c3ccc(OC(F)F)c(C)c3)N=C(N)N(C)C2=O)c1 (stereo not drawn) [FAH-63]", "PAMPA": 0.38}

---

- TEST_TARGET: BACE-1 (Homo sapiens (Human), UniProt P56817)
- Sequence (P56817 46-501): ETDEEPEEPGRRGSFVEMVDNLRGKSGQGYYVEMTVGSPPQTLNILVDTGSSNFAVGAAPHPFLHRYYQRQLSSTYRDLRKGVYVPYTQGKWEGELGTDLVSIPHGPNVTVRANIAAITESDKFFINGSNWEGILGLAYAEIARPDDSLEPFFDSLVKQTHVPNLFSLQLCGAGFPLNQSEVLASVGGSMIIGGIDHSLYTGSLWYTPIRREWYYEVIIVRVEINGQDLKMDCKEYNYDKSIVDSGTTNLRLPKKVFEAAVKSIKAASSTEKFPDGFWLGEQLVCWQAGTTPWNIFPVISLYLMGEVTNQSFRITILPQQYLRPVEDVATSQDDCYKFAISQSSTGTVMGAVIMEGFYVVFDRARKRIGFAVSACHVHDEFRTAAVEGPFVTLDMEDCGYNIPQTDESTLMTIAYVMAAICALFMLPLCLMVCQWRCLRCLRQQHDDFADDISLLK
- EXPERIMENT: cell-free BACE enzyme assay with P5-P5′ substrate
- Type: biochemical
- CONDITION_DETAILS: cell-free; several replicate values per cell, some flagged 's' (flag not defined); read-out: BACE1 IC50
pIC50: −log10 of the molar value.

{"COMPOUND": "Cc1cc(C2(c3ccnc(F)c3)N=C(N)N(C)C2=O)ccc1OC(F)F (centres unmarked)", "VALUE_OPERATOR": "=", "pIC50": 5.52}
{"COMPOUND": "CC#Cc1cncc(-c2cc(C3(c4ccnc(C(F)F)c4)N=C(N)N(C)C3=O)ccc2F)c1 (centres unmarked)", "VALUE_OPERATOR": "=", "pIC50": 7.70}
{"COMPOUND": "Cc1cc(C2(c3cocn3)N=C(N)N(C)C2=O)ccc1OC(F)F (centres unmarked)", "VALUE_OPERATOR": "<", "pIC50": 5.30}
{"COMPOUND": "Cc1cc(C2(C3CCCC(c4cncnc4)C3)N=C(N)N(C)C2=O)ccc1OC(F)F (centres unmarked)", "VALUE_OPERATOR": "=", "pIC50": 6.66}
{"COMPOUND": "Cc1cc(C2(c3cncc(F)c3)N=C(N)N(C)C2=O)ccc1OC(F)F (centres unmarked)", "VALUE_OPERATOR": "=", "pIC50": 5.71}
{"COMPOUND": "COc1cc(C2(c3ccc(OC(F)F)c(C)c3)N=C(N)N(C)C2=O)ccn1 (centres unmarked)", "VALUE_OPERATOR": "=", "pIC50": 5.36}
{"COMPOUND": "Cc1cc(C2(c3cncnc3)N=C(N)N(C)C2=O)ccc1OC(F)F (centres unmarked)", "VALUE_OPERATOR": "<", "pIC50": 5.30}
{"COMPOUND": "CN1C(=O)C(c2cccc(-c3cncnc3)c2)(c2ccc3c(c2)OCO3)N=C1N (centres unmarked)", "VALUE_OPERATOR": "=", "pIC50": 6.60}
{"COMPOUND": "CN1C(=O)C(c2cccc(-c3cncnc3)c2)(c2ccc3c(c2)OC(F)(F)O3)N=C1N (centres unmarked)", "VALUE_OPERATOR": "=", "pIC50": 6.34}
{"COMPOUND": "CCCC1CC(C2(c3ccc(OC(F)F)c(C)c3)N=C(N)N(C)C2=O)CCN1C (centres unmarked)", "VALUE_OPERATOR": "=", "pIC50": 4.79}
{"COMPOUND": "Cc1cc(C2(c3ccc(OC(F)F)c(C)c3)N=C(N)N(C)C2=O)ccn1 (centres unmarked)", "VALUE_OPERATOR": "=", "pIC50": 5.52}
{"COMPOUND": "Cc1cc(C2(c3cc(-c4cncnc4)ccc3F)N=C(N)N(C)C2=O)ccc1OC(F)F (centres unmarked)", "VALUE_OPERATOR": "=", "pIC50": 6.70}
{"COMPOUND": "CN1C(=O)C(c2cccc(-c3cncnc3)c2)(c2ccc3c(c2)OCCO3)N=C1N (centres unmarked)", "VALUE_OPERATOR": "=", "pIC50": 6.68}
{"COMPOUND": "Cc1cc(C2(C3CCCCC3)N=C(N)N(C)C2=O)ccc1OC(F)F (centres unmarked)", "VALUE_OPERATOR": "=", "pIC50": 6.14}
